biological target: T1, TRBV5-1 antigenic peptide No. 1 (…) conjugated to BSA (human); assay: ELISA; confirmatory monoclonal phage ELISA; antigens peptide alone, peptide-BSA, peptide-biotin; controls PBS, 10% BSA-PBS, PBS-streptavidin; phage dilution factors 1, 3, 9
T1 sequence (peptide): TQTPRYLIKTRGQQ
test_readout: ELISA signal at phage dilution factor 1

binder | test_readout | experimental_value
scFv clone C10 (scFv, V domains shown, tested as phage clone in the confirmatory monoclonal ELISA; source: phage display clone from the human naive scFv library LiAb-SFMAX (Proteogenix), amplified in E. coli TG1) VH: EVQLVQSGAEVKKPGSSVKVSCKASGGTFSSYAISWVRQAPGQGLEWMGGIIPIFGTANYAQKFQGRVTITADKSTSTAYMELSSLRSEDTAVYYCAREPLRGYSGYDFYYYGMDVWGQGTMVTVSS VL: SYELTQPHSVSGSPGETVTISCAGSGGSIASNYVQWYQQRPGSAPTTLIYEDKVRPSGVPDRFSGSIDYSSDSASLTISGLKTEDEADYYCQSADSTSTYVFGTGTKVTVL | ELISA signal at phage dilution factor 1 | 3.83
scFv clone A2 (scFv, V domains shown, tested as phage clone in the confirmatory monoclonal ELISA; source: phage display clone from the human naive scFv library LiAb-SFMAX (Proteogenix), amplified in E. coli TG1) VH: QVQLQQSGPGLVKPSQTLSLTCAISGDSVSSNSAAWNWIRQSPSRGLEWLGRTYYRSKWYNDYAVSVKSRITINPDTSKNQFSLQLNSVTPEDTAVYYCARDQAAAEVYFDYWGQGTLVTVSS VL: NFMLTQPHSVSESPGKTVTISCTRSSGSIASNYLQWYQQRPGSAPTTVIYEDNQRPSGVPDRFSGSIDSSSNSASLTISGLKTEDEADYYCQSYDNRNHWVFGGGTQLTVL | ELISA signal at phage dilution factor 1 | 4.3
scFv clone D5 (scFv, V domains shown, tested as phage clone in the confirmatory monoclonal ELISA; source: phage display clone from the human naive scFv library LiAb-SFMAX (Proteogenix), amplified in E. coli TG1) VH: QVQLVQSGAEVKKPGASVKVSCKPSGYYFNGYDITWVRQAIGQGLEWMGWMNPNSGNRDYAHQFQGRLTMTWDTSLSTAYLELNNLQSDDTAIYYCARERVSSGLDFWGQGTLVTVSS VL: SYELTQPPSVSVSPGQTARITCSGDALPKQYAYWYQQKPGQAPVLLIYKDSERPSGIPERFSGSSSGTTVTLTISGVQAEDEADYYCQSADSSGTYVVFGGGTQLTVL | ELISA signal at phage dilution factor 1 | 4.03

Origin of measurements: paper PMC11686114
